Tested on: NOMO1
Test: cell viability relative to DMSO control; higher = less cytotoxic
Conditions: RPMI 5 mM glucose + 10% dialyzed FBS; 48 h; 15.4 µM
measuredProperty: cell viability (%)
One number for each entry, in %.

smilesData	unitOfMeasure	quantitativeReadout
CC(C)C[C@H](NC(=O)[C@H](Cc1ccccc1)NC(=O)c1cnccn1)B(O)O	%	1.72
COC[C@H]1OC(=O)C2=COC3=C2[C@@]1(C)\C4=C(\[C@@H]5CC[C@H](O)[C@@]5(C)C[C@H]4OC(C)=O)C3=O	%	94
CCNC(=O)[C@H]1O[C@@H](n2cnc3c(N)nc(NCCc4ccc(CCC(=O)O)cc4)nc32)[C@H](O)[C@@H]1O	%	78.8
CC(C)(C)c1cc(C(=O)O)c(NC(=O)Nc2ccc3[nH]ncc3c2)s1	%	82.8
O=C(NNC(=O)c1ccc(CN[S+](=O)([O-])c2ccc(F)c(Cl)c2)cc1)c1ccccc1	%	112
CC(C)c1ccccc1Cc1cc(C(=O)Nc2ccc([S+](=O)([O-])c3ccccc3C(C)(C)C)cc2)c(O)c(O)c1O	%	97
Cc1cc(Cl)ccc1OCCCC(=O)NO	%	73.4

# next compound below
(Q) Query: cell viability; subject: `O=C1N\2CCC3=C([NH]C4=C3C=CC=C4)C2=N/C5=CC=CC=C15`
(A) 141

###

Tested on: P12-Ichikawa
Assay: cell viability relative to DMSO control; higher = less cytotoxic
Conditions: RPMI 5 mM glucose + 10% FBS; 48 h; 0.000781 µM
measuredProperty: cell viability (%)
Give bare numbers, in %.

molecule	unitOfMeasure	cell viability
O=C(NNC(=O)c1ccc(CN[S+](=O)([O-])c2ccc(F)c(Cl)c2)cc1)c1ccccc1	%	99.8
OC(COC1=C2C(=O)\C=C(/OC2=CC=C1)C([O-])=O)COC3=C4C(=O)\C=C(/OC4=CC=C3)C([O-])=O	%	98.9
NCC(=O)Nc1ccc(-n2nc(C(F)(F)F)cc2-c2ccc3c(ccc4ccccc43)c2)cc1	%	24.1

Give measured cell viability for every item shown.
1. CCN(C)C(=O)Oc1cccc([C@H](C)N(C)C)c1
2. O=C(CCc1ccc(O)cc1)c1c(O)cc(O)cc1O[C@@H]1O[C@H](CO)[C@@H](O)[C@H](O)[C@H]1O
3. CN(C)c1ccc(Nc2nc(N)n(C(=O)c3c(F)cccc3F)n2)cc1
4. COc1cccc2c1C(=O)c1c(O)c3c(c(O)c1C2=O)C[C@@](O)(C(C)=O)C[C@@H]3O[C@H]1C[C@H](N)[C@H](O)[C@H](C)O1
5. C[N+](C)([O-])CCNc1ccc(NCC[N+](C)(C)[O-])c2c1C(=O)c1c(O)ccc(O)c1C2=O
6. O=C1NC(=O)/C(=C/c2cccc(C(F)(F)F)c2)S1

(A)
1. 106
2. 90.2
3. 122
4. 94.8
5. 101
6. 99.3

Please report cell viability for every entry that follows.
1. COc1ccc2c(c1OC)CN1CCc3cc4c(cc3C1C2)OCO4 (stereo not given)
2. COC1=CC=C(C=C1)C2CC(=N/N2C3=CC=C(C=C3)[S+](N)([O-])=O)\C4=CC=CC=C4 (stereo not given)
3. Cc1cc(O)c2c(c1)C(=O)c1cc(O)cc(O)c1C2=O
4. COc1ccc(Nc2cc(-c3cnc(N)nc3)nc(N3CCOCC3)n2)cn1
5. COC1(C[S+]([O-])c2ccccc2)CCN(CCc2c[nH]c3ccc(F)cc23)CC1 (stereo not given)
6. C[C@@H]1C[C@H]2[C@@H]3CC\C4=C\C(=O)\C=C/[C@]4(C)[C@@]3(Cl)[C@@H](O)C[C@]2(C)[C@@]1(OC(=O)C5=CC=CO5)C(=O)CCl
7. Cc1ccc(-c2ncn(-c3ccc(Nc4nccc(-c5cccc(N6CCOCC6)c5)n4)cc3)n2)cn1

(A)
86.1
101
100
89.9
117
99.2
92.2

Batch request: cell viability per item, same order as input.
1. CC(C)(C)c1cc(C(=O)O)c(NC(=O)Nc2ccc3[nH]ncc3c2)s1
2. CN[S+](=O)([O-])CCc1ccc2[nH]cc(C3CCN(C)CC3)c2c1

(A)
1. 92.9
2. 91.6

Hey, can you go through the list below and give me cell viability for every item?
1. CCNC(=O)[C@H]1O[C@@H](n2cnc3c(N)nc(NCCc4ccc(CCC(=O)O)cc4)nc32)[C@H](O)[C@@H]1O
2. CC1(C)CC(O)CC(C)(C)N1[O]

(A)
[105, 110]
